Provenance of the data: patent US20100144645A1

assay: Oral bioavailability of oxycodone conjugates (plasma oxycodone plus oxymorphone); settings: rats, n = 4 animals, analysis by LC-MS, OXY = 100

COMPOUND: CC[C@H](C)[C@H](NC(=O)[C@H](CCCCN)NC(=O)[C@@H](N)CCCCN)C(=O)OC1=CCC2(O)[C@H]3Cc4ccc(OC)c5c4[C@@]2(CCN3C)C1O5 (some centres unmarked)
Oral (% AUC): 74 % AUC

COMPOUND: COc1ccc2c3c1OC1C(OC(=O)[C@@H](NC(=O)[C@H](CCC(=O)O)NC(=O)[C@@H](N)CCC(=O)O)C(C)C)=CCC4(O)[C@@H](C2)N(C)CC[C@]314 (some centres unmarked)
Oral (% AUC): 55 % AUC

COMPOUND: COc1ccc2c3c1OC1C(OC(=O)[C@@H](NC(=O)[C@H](CCCCN)NC(=O)[C@@H](N)CCCCN)C(C)C)=CCC4(O)[C@@H](C2)N(C)CC[C@]314 (some centres unmarked)
Oral (% AUC): 108 % AUC

COMPOUND: COc1ccc2c3c1OC1C(OC(=O)[C@H](Cc4ccccc4)NC(=O)[C@H](Cc4ccc(O)cc4)NC(=O)[C@@H](N)Cc4ccc(O)cc4)=CCC4(O)[C@@H](C2)N(C)CC[C@]314 (some centres unmarked)
Oral (% AUC): 73 % AUC

COMPOUND: CC[C@H](C)[C@H](NC(=O)[C@H](CCC(=O)O)NC(=O)[C@@H](N)CCC(=O)O)C(=O)OC1=CCC2(O)[C@H]3Cc4ccc(OC)c5c4[C@@]2(CCN3C)C1O5 (some centres unmarked)
Oral (% AUC): 179 % AUC

COMPOUND: COc1ccc2c3c1OC1C(OC(=O)[C@H](Cc4ccccc4)NC(=O)CNC(=O)CN)=CCC4(O)[C@@H](C2)N(C)CC[C@]314 (some centres unmarked)
Oral (% AUC): 163 % AUC

COMPOUND: COc1ccc2c3c1OC1C(OC(=O)[C@H](Cc4ccccc4)NC(=O)[C@@H](NC(=O)[C@@H](N)C(C)C)C(C)C)=CCC4(O)[C@@H](C2)N(C)CC[C@]314 (some centres unmarked)
Oral (% AUC): 120 % AUC

COMPOUND: COc1ccc2c3c1OC1C(OC(=O)[C@H](Cc4ccccc4)NC(=O)[C@H](CCCCN)NC(=O)[C@@H](N)CCCCN)=CCC4(O)[C@@H](C2)N(C)CC[C@]314 (some centres unmarked)
Oral (% AUC): 37 % AUC

COMPOUND: COc1ccc2c3c1OC1C(OC(=O)[C@H](CC(C)C)NC(=O)[C@H](CCCCN)NC(=O)[C@@H](N)CCCCN)=CCC4(O)[C@@H](C2)N(C)CC[C@]314 (some centres unmarked)
Oral (% AUC): 46 % AUC

COMPOUND: COc1ccc2c3c1OC1C(OC(=O)[C@@H]4CCCN4C(=O)[C@H](CCC(=O)O)NC(=O)[C@@H](N)CCC(=O)O)=CCC4(O)[C@@H](C2)N(C)CC[C@]314 (some centres unmarked)
Oral (% AUC): 71 % AUC

COMPOUND: CC[C@H](C)[C@H](NC(=O)[C@@H]1CCCN1C(=O)[C@@H]1CCCN1)C(=O)OC1=CCC2(O)[C@H]3Cc4ccc(OC)c5c4[C@@]2(CCN3C)C1O5 (some centres unmarked)
Oral (% AUC): 85 % AUC
